Hi there, I'd appreciate the recorded protein stability index for every entry that follows.
B1: KCNAB2 (parent)
chain: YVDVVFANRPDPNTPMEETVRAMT

Variants of: B1
test: protein stability index of a GFP-peptide fusion (GPS, HEK-293T) (PSI 1-6); higher = more stable;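 also: lentivirally expressed fusions sorted by FACS into six bins by GFP to DsRed ratio, PSI derived from sequencing read proportions per bin multiplied by bin number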
setup-conditions: c terminus: a fixed tail appended
Give the figure by itself; no unit, no explanation.

What measured protein stability index goes with YVDVVFANRPDMNTPMEETVRAMT [P12M] ?
2.03

Given the variant YVDVVFANVPDPNTPMEETVRAMT [R9V] , what is its reported protein stability index?
2.96

Please look up its protein stability index: YVDVVFANRPCPNTPMEETVRAMT [D11C]
1.77

// returns reported protein stability index for input YVDVVFANRPDPNAPMEETVRAMT [T14A]
1.84

For the variant shown here, YVDVVFANRPDPNTPMIETVRAMT [E17I] , give the reported protein stability index.
1.58

GET /values?readout=protein stability index&item= YVDVVFANRPDPNTPMEETLRAMT [V20L]
2.58

Which protein stability index is listed for YVDVVFANRPDDNTPMEETVRAMT [P12D] ?
1.65

Entry under review: YVDVVFANRPDPNTPMEETVRAFT [M23F] . Reported protein stability index?
2.03

Find the recorded protein stability index belonging to YVDVVFANRPDPNTPMEETVRAMW [T24W] and report it.
2.72

Can you look up the measured protein stability index of WVDVVFANRPDPNTPMEETVRAMT [Y1W] for me?
1.74

Please report the recorded protein stability index for YVDVVGANRPDPNTPMEETVRAMT [F6G] .
3.16

Name the reported protein stability index value associated with the variant YVDVVFANSPDPNTPMEETVRAMT [R9S]
2.76

Which protein stability index is reported for this variant? YVDYVFANRPDPNTPMEETVRAMT [V4Y]
1.85

Name the reported protein stability index value associated with the variant YVDVVFANRPDPNTPMEEAVRAMT [T19A]
1.86

What does the data say about its protein stability index? Entry: YVDVVFANRPDPNTPMEETVNAMT [R21N]
2.33

Which protein stability index is listed for YVDVVFANRPDPNTPMEQTVRAMT [E18Q] ?
2.09

Would you kindly share the measured protein stability index for YVDVVFANRPDYNTPMEETVRAMT [P12Y] ?
2.72

// protein stability index lookup, key: HVDVVFANRPDPNTPMEETVRAMT [Y1H]
4.05

I would be grateful if you could share the reported protein stability index for YVDVVFANRPDPNTDMEETVRAMT [P15D] .
1.49

Data request, read-out protein stability index, for YVDVVFANRPNPNTPMEETVRAMT [D11N]
1.67

What value of measured protein stability index is listed for YVDVCFANRPDPNTPMEETVRAMT [V5C] ?
1.9

May I ask what protein stability index has been recorded for YVDVVFANRPDPNDPMEETVRAMT [T14D] ?
1.69

Which protein stability index is reported for this variant? YVDVVFANRPDPNTPMEERVRAMT [T19R]
1.66

Which protein stability index reading was recorded for the variant YVQVVFANRPDPNTPMEETVRAMT [D3Q] ?
1.91

Can you share its protein stability index? I mean this variant: IVDVVFANRPDPNTPMEETVRAMT [Y1I]
2.7

Please give the measured protein stability index for this variant: YVDVVFANRPDPNTPMEETVRAAT [M23A]
2.16

Query (variant): YVDVVKANRPDPNTPMEETVRAMT [F6K] ; field requested: protein stability index
2.66

Form field: reported protein stability index of YVDVVFANRPDPYTPMEETVRAMT [N13Y]
2.31

Endpoint output: protein stability index of YVDVVFANRPDPNTPMEETVRADT [M23D] . Value?
1.61

# lookup: protein stability index of YVDVVNANRPDPNTPMEETVRAMT [F6N]
3.01

Return reported protein stability index; argument: YVDVVFNNRPDPNTPMEETVRAMT [A7N]
1.97

Find the recorded protein stability index belonging to YVDVVFANRPDPNTPMCETVRAMT [E17C] and report it.
1.62

Fill in the blank: the reported protein stability index of YVDVVRANRPDPNTPMEETVRAMT [F6R] is ____.
2.05

I have this variant here, YVDVVFMNRPDPNTPMEETVRAMT [A7M] , and I need its recorded protein stability index.
2.16

So what does the record say about protein stability index for YVDVVFANRPDPNTPMEEIVRAMT [T19I] ?
1.85

Which protein stability index is reported for this variant? YVDVVFANRPDPNTPMEESVRAMT [T19S]
1.93

I am curious: what protein stability index value has been reported for YVDVVVANRPDPNTPMEETVRAMT [F6V] ?
1.94

What does the record list as protein stability index for YNDVVFANRPDPNTPMEETVRAMT [V2N] ?
4.51

Would you kindly share the measured protein stability index for YVDVVFANRPDPNTPMLETVRAMT [E17L] ?
1.64

Which protein stability index is listed for YVDVFFANRPDPNTPMEETVRAMT [V5F] ?
3.07

I would be grateful if you could share the reported protein stability index for YVDVVFANRPDQNTPMEETVRAMT [P12Q] .
2.43

# input variant: YVDVVFANRPDPNTPMEEWVRAMT [T19W] ; wanted: its protein stability index
1.85

Could you share which protein stability index value was measured for YVDVVFANRPDPNFPMEETVRAMT [T14F] ?
2.32

Query: protein stability index; subject: YVDVVFAQRPDPNTPMEETVRAMT [N8Q]
1.9

Fill blank: measured protein stability index of the variant YEDVVFANRPDPNTPMEETVRAMT [V2E] is ____.
4.98

Request the reported protein stability index associated with YVDVVFANRPDPNTPWEETVRAMT [M16W]
2.2

Look at this variant and give its reported protein stability index. YVDVVFANRPDPNTQMEETVRAMT [P15Q]
2.1

What protein stability index value was documented for this variant, YVDVVFANRPDPNTPMESTVRAMT [E18S] ?
1.99

Quick one: protein stability index for YVDVVFANRPDPNTHMEETVRAMT [P15H] ?
1.35

Look up protein stability index for this variant: YVDVNFANRPDPNTPMEETVRAMT [V5N]
2.06

Would you mind telling me what protein stability index value was observed for YVDVVFANRPDPNTPMEETVRAMK [T24K] ?
1.82

Would you kindly share the measured protein stability index for YVDVVFANRPDPNTPMEETVRAMR [T24R] ?
1.78

Give the measured protein stability index of YVDVVFANRPDPVTPMEETVRAMT [N13V] .
2.44

Using the record for YVDVVFANRPYPNTPMEETVRAMT [D11Y] , report its protein stability index.
2.42

Given YVDVVFANRPDPNTPMEETVRRMT [A22R] , state its recorded protein stability index.
1.89

Look at this variant and give its reported protein stability index. YVDVVFANFPDPNTPMEETVRAMT [R9F]
2.02

I have this variant here, YVDVVFANRPDPNTPMGETVRAMT [E17G] , and I need its recorded protein stability index.
2.72

I'd like to know its protein stability index. The variant in question is YVDVVFANRPDPNTPMEKTVRAMT [E18K]
2.75

Given the variant YVDVVFSNRPDPNTPMEETVRAMT [A7S] , what is its reported protein stability index?
2.13

Tell me the measured protein stability index of YVDVVFANRPDPNTKMEETVRAMT [P15K] , please.
2.72

Fill blank: measured protein stability index of the variant YVDVVFANRPDPNQPMEETVRAMT [T14Q] is ____.
2.12

Which protein stability index is reported for this variant? YVDIVFANRPDPNTPMEETVRAMT [V4I]
1.83

Any idea what protein stability index was measured for YVDVVFANRPDPLTPMEETVRAMT [N13L] ?
1.96

For the variant shown here, YVDVVFACRPDPNTPMEETVRAMT [N8C] , give the reported protein stability index.
2.94

Fill blank: measured protein stability index of the variant YVDVVFKNRPDPNTPMEETVRAMT [A7K] is ____.
1.64

Reported protein stability index, variant YVSVVFANRPDPNTPMEETVRAMT [D3S] : ____
2.99

I have this variant here, YVDVVFATRPDPNTPMEETVRAMT [N8T] , and I need its recorded protein stability index.
2.68

I have this variant here, YVDVVFAWRPDPNTPMEETVRAMT [N8W] , and I need its recorded protein stability index.
2.85

What value of protein stability index has been reported for the following variant? YVDRVFANRPDPNTPMEETVRAMT [V4R]
2.52

Look up protein stability index: YVDVVFANRLDPNTPMEETVRAMT [P10L]
2.7

Can you share its protein stability index? I mean this variant: YVDVVFANRPDPNCPMEETVRAMT [T14C]
1.99

What value of protein stability index has been reported for the following variant? YVDVVFANRPDPNTPMEEYVRAMT [T19Y]
1.62

Quick check: protein stability index of YVHVVFANRPDPNTPMEETVRAMT [D3H] ?
2.07

# input variant: YVDVVFANRPDPNTPSEETVRAMT [M16S] ; wanted: its protein stability index
2.42

Given the entry YVDLVFANRPDPNTPMEETVRAMT [V4L] , report its measured protein stability index.
2.66

Consider the variant shown here: YVDVVFANRPWPNTPMEETVRAMT [D11W] What is its recorded protein stability index?
1.94

Find the recorded protein stability index belonging to YVDVVFANRPDPNTPMEETNRAMT [V20N] and report it.
1.92

Look up protein stability index: YVDNVFANRPDPNTPMEETVRAMT [V4N]
1.64

Need protein stability index, item YVCVVFANRPDPNTPMEETVRAMT [D3C]
2.31

Please look up its protein stability index: YVDVWFANRPDPNTPMEETVRAMT [V5W]
1.59

State the recorded protein stability index for this entry: YVDVIFANRPDPNTPMEETVRAMT [V5I]
2.09

Report protein stability index for YVDVVFANRPDPNTRMEETVRAMT [P15R] please.
2.52

Entry VVDVVFANRPDPNTPMEETVRAMT [Y1V] has what protein stability index?
3.15

GET /values?readout=protein stability index&item= YVDVVFANRPDPNTPMEETTRAMT [V20T]
1.81

Could you tell me which protein stability index is on file for YVDVVFANRPDKNTPMEETVRAMT [P12K] ?
2.16

// lookup protein stability index for YVDVVFANRPMPNTPMEETVRAMT [D11M]
2.04

Need protein stability index of YVDVVFVNRPDPNTPMEETVRAMT [A7V] , thanks.
3.18

For the variant shown here, DVDVVFANRPDPNTPMEETVRAMT [Y1D] , give the reported protein stability index.
4.52

Given the entry YVDVVYANRPDPNTPMEETVRAMT [F6Y] , report its measured protein stability index.
2.13

Entry YVDVVFANRPDFNTPMEETVRAMT [P12F] : reported protein stability index = ?
2.02

Report protein stability index for YKDVVFANRPDPNTPMEETVRAMT [V2K] please.
4.33
